Value source: ChEMBL document CHEMBL3603779

Target: UniProt:P21453
Sequence (P21453 whole entry): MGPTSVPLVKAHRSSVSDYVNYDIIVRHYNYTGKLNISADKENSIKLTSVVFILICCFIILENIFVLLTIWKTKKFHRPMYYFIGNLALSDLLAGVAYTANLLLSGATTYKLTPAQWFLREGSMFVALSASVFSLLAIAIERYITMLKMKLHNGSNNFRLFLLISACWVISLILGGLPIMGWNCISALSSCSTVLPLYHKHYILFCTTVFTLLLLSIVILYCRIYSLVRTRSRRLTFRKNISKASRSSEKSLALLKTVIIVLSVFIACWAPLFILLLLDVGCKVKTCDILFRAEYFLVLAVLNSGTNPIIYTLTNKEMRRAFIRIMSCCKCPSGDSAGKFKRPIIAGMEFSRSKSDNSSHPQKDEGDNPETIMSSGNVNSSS
Test: Antagonist activity against human S1P1 receptor expressed in human U2OS cells co-expressing GFP assessed as inhibition of S1P-induced receptor translocation
pEC50: −log10 of the molar value.
measure: pEC50

Solved cases (4 shown):
>>> quantitative_result("CCn1cc(S(=O)(=O)N[C@H](C)c2nc3ccc(C(F)(F)F)cc3n2CC)cn1")
6.23
>>> quantitative_result("CCn1c(C(C)NS(=O)(=O)c2ccc(Cl)cc2)nc2cccnc21 (centres undefined)")
5.63
>>> quantitative_result("CCn1c([C@@H](C)NS(=O)(=O)c2ccc(C)cc2)nc2ccc(C(F)(F)F)cc21")
7.62
>>> quantitative_result("CCn1c([C@@H](C)NS(=O)(=O)c2ccc(Cl)cc2)nc2ccc(C(F)(F)F)cc21")
8.30

I = CCn1c([C@@H](C)NS(=O)(=O)C2CC2)nc2ccc(C(F)(F)F)cc21
II = CCn1c([C@@H](C)NS(=O)(=O)c2ccc(C#N)nc2)nc2cnc(C3CC3)cc21
III = CCn1c([C@@H](C)NS(=O)(=O)c2ccc(C#N)cc2)nc2cnccc21
IV = CCn1c([C@@H](C)NS(=O)(=O)c2ccc(Cl)cc2)nc2cc(F)c(Cl)cc21
V = CCCn1cc(S(=O)(=O)N[C@H](C)c2nc3ccc(C(F)(F)F)cc3n2CC)c(C)n1
query: Order the items by recorded pEC50; the first position goes to the largest value. A complete answer lists every label in the requested sequence.
result: IV, II, III, V, I
(IV: 9.00, II: 8.40, III: 7.47, V: 6.38, I: 5.05)
